- Target under test: recombinant IL4I1 (Homo sapiens (Human), UniProt Q96RQ9)
- Sequence (Q96RQ9 22-567): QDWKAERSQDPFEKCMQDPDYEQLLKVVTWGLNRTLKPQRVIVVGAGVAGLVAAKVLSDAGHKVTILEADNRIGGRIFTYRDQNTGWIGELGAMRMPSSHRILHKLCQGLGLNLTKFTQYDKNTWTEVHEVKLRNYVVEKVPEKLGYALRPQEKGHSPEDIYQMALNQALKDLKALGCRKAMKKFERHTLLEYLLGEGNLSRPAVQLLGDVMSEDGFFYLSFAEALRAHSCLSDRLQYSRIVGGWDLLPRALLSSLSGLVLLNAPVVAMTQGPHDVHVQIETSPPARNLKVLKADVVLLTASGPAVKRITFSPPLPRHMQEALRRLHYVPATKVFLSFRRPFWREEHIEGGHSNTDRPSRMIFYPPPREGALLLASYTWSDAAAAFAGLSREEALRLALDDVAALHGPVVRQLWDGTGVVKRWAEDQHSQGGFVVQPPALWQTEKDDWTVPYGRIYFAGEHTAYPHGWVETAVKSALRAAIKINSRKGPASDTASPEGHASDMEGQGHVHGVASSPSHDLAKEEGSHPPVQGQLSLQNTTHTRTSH
- Test protocol: IL4I1 Enzymatic Assay (Amplex Red/HRP coupled fluorescence detection of H2O2)
- Format: biochemical
- Applied conditions: 240 min; recombinant IL4I1, four-hour pre-incubation with compound
Catalogue of molecules with associated EC50
Value kind: EC50 (nM)

Molecule: O=C1C(=O)N(C23CC(F)(C2)C3)CCN1Cc1ccc(-n2ccnn2)nn1 [Example 249]
Value kind: EC50
Unit info: nM
Readout value: 148

Molecule: O=c1c(=O)n(C2CCCC2)ccn1Cc1cc(-c2ccccc2)no1 [Example 358B]
Value kind: EC50
Unit info: nM
Readout value: 1

Molecule: O=C1C(=O)N(C23CC(C2)C3)CCN1Cc1cc(-c2cccc(F)c2)on1 [Example 76]
Value kind: EC50
Unit info: nM
Readout value: 4

Molecule: N#CC1(n2ccn(Cc3ccc(-n4nccn4)nc3)c(=O)c2=O)CC1 [Example 391]
Value kind: EC50
Unit info: nM
Readout value: 170

Molecule: CC1(n2ccn(Cc3cc(-c4cccnc4)no3)c(=O)c2=O)CC1 [Example 221]
Value kind: EC50
Unit info: nM
Readout value: 14

Molecule: CC1(n2ccn(Cc3ccc(-n4cccn4)cn3)c(=O)c2=O)CC1 [Example 381]
Value kind: EC50
Unit info: nM
Readout value: 40

Molecule: O=C1C(=O)N(C2CCCC2)CCN1Cc1nnc(N2CCCC2)s1 [Example 310]
Value kind: EC50
Unit info: nM
Readout value: 41

Molecule: O=C1C(=O)N(C23CC(C2)C3)CCN1Cc1ccc(-n2ccnn2)nn1 [Example 402]
Value kind: EC50
Unit info: nM
Readout value: 36

Molecule: O=c1c(=O)n(C2CCC2)ccn1Cc1ccc(-c2c(F)cccc2F)nn1 [Example 192]
Value kind: EC50
Unit info: nM
Readout value: 13

Molecule: O=C1C(=O)N(C23CC(C2)C3)CCN1Cc1ccc(-c2ccccc2F)nn1 [Example 66]
Value kind: EC50
Unit info: nM
Readout value: 7

Molecule: O=c1c(=O)n(C23CC(F)(C2)C3)ccn1Cc1cc(-c2cccnc2)no1 [Example 224]
Value kind: EC50
Unit info: nM
Readout value: 101

Molecule: O=C1C(=O)N(C23CC(C2)C3)CCN1Cc1nnc(-c2ccccc2Cl)s1 [Example 179]
Value kind: EC50
Unit info: nM
Readout value: 13

Molecule: N#Cc1ccc(-c2cc(CN3CCN(C45CC(C4)C5)C(=O)C3=O)no2)cc1 [Example 423]
Value kind: EC50
Unit info: nM
Readout value: 19

Molecule: O=C1C(=O)N(C2CCCC2)CCN1Cc1ccc(-c2cncs2)nn1 [Example 11]
Value kind: EC50
Unit info: nM
Readout value: 16

Molecule: [2H]c1c([2H])c([2H])c(-c2ccc(CN3CCN(C4CCC4)C(=O)C3=O)nn2)c([2H])c1[2H] [Example 80]
Value kind: EC50
Unit info: nM
Readout value: 15

Molecule: O=c1c(=O)n(C2CCC2)ccn1Cc1cc(-c2ccccn2)no1 [Example 161]
Value kind: EC50
Unit info: nM
Readout value: 5

Molecule: O=c1c(=O)n(C2CCC2)ccn1Cc1cc(-c2ccccc2F)no1 [Example 152]
Value kind: EC50
Unit info: nM
Readout value: 2

Molecule: O=c1c(=O)n(C2CCC2)ccn1Cc1ccc(-n2cccn2)nn1 [Example 329]
Value kind: EC50
Unit info: nM
Readout value: 15

Molecule: CC(c1ncc(-c2ccccc2)cn1)N1CCN(C2CCCC2)C(=O)C1=O (single isomer, unassigned) [Example 133]
Value kind: EC50
Unit info: nM
Readout value: 22

Molecule: O=C1C(=O)N(C23CC(C2)C3)CCN1Cc1ccc(-n2nccn2)cc1 [Example 406]
Value kind: EC50
Unit info: nM
Readout value: 15

Molecule: O=C1C(=O)N(C2(c3ccncc3)CC2)CCN1Cc1nnc(-c2ccccc2)s1 [Example 304]
Value kind: EC50
Unit info: nM
Readout value: 98

Molecule: N#CC1(n2ccn(Cc3ccc(-n4ccnn4)nc3)c(=O)c2=O)CC1 [Example 390]
Value kind: EC50
Unit info: nM
Readout value: 343

Molecule: O=c1c(=O)n(C23CC(C2)C3)ccn1Cc1ccc(-c2cncs2)nn1 [Example 95]
Value kind: EC50
Unit info: nM
Readout value: 16

Molecule: O=c1c(=O)n([C@H]2C[C@H]3C[C@H]3C2)ccn1Cc1nnc(-c2ccccc2F)s1 [Example 45]
Value kind: EC50
Unit info: nM
Readout value: 5

Molecule: O=c1c(=O)n([C@H]2C[C@H]3C[C@H]3C2)ccn1Cc1cc(-c2ccccn2)on1 [Example 375]
Value kind: EC50
Unit info: nM
Readout value: 6

Molecule: O=c1c(=O)n(C23CC(F)(C2)C3)ccn1Cc1ccc(-n2ccnn2)nn1 [Example 248]
Value kind: EC50
Unit info: nM
Readout value: 38

Molecule: O=c1c(=O)n(C23CC(C2)C3)ccn1Cc1cc(-c2cccc(F)c2)on1 [Example 417]
Value kind: EC50
Unit info: nM
Readout value: 2

Molecule: O=c1c(=O)n([C@H]2C[C@H]3C[C@H]3C2)ccn1Cc1nnc(-c2ccccc2)s1 [Example 39]
Value kind: EC50
Unit info: nM
Readout value: 3

Molecule: O=c1c(=O)n(C2(CF)CC2)ccn1Cc1ccc(-n2ccnn2)nn1 [Example 247]
Value kind: EC50
Unit info: nM
Readout value: 44

Molecule: O=C1C(=O)N(C2CCCC2)CCN1Cc1cnn(-c2ccccc2)c1 [Example 273]
Value kind: EC50
Unit info: nM
Readout value: 19

Molecule: O=c1c(=O)n(C23CC(C2)C3)ccn1Cc1cc(-c2ccccc2F)on1 [Example 77]
Value kind: EC50
Unit info: nM
Readout value: 3

Molecule: O=C1C(=O)N(C2CCCC2)CCN1Cc1cc(-c2ccc(F)cc2)no1 [Example 162]
Value kind: EC50
Unit info: nM
Readout value: 4

Molecule: O=C1C(=O)N(C2CCC2)CCN1Cc1ccc(-n2nccn2)cc1 [Example 399]
Value kind: EC50
Unit info: nM
Readout value: 19

Molecule: O=C1C(=O)N(C23CC(F)(C2)C3)CCN1Cc1ccc(-c2ccccn2)cn1 [Example 254]
Value kind: EC50
Unit info: nM
Readout value: 93

Molecule: O=C1C(=O)N(C2CCCC2)CCN1Cc1nnc(N2CC[C@H](F)C2)s1 [Example 311]
Value kind: EC50
Unit info: nM
Readout value: 60
